assay.comment: Assessment of solubility (McIlvaine buffers, 24 h shake, UPLC-UV)
Type: physicochemical
condition: pH 6.8, aqueous buffer, kinetic from dmso stock
measured.endpoint: solubility at 24 h (µg/mL)

(A) CCOc1c(C(=O)O)cnn1-c1cccc(-c2cccc(C)c2OCc2ccc3c(c2)CCN(CC2CC(F)(F)C2)C3)n1
(B) COc1c(C(=O)O)cnn1-c1cccc(-c2cccc(C)c2OCc2cc3c(cc2C)CN(C2CCOCC2)C3)n1
# input Of the two listed items, which has the higher solubility at 24 h? First: A Second: B Mark your answer with the label of the selected entry.
# output B
(B: 160 µg/mL, A: 75 µg/mL)

(1) COc1c(C(=O)O)cnn1-c1cccc(-c2cccc(C)c2OCc2cc(C)c3c(c2)CCN(C2CCOCC2)C3)n1
(2) COc1c(C(=O)O)cnn1-c1cccc(-c2cccc(C)c2OCc2ccc3c(c2)CCN(CC2CC2(F)F)C3)n1 (stereo not shown)
# input Of the two listed items, which has the higher solubility at 24 h? First: 1 Second: 2 Mark your answer with the label of the selected entry.
# output 1
(1: 98 µg/mL, 2: 67 µg/mL)

---

target.desc: human soluble guanylate cyclase alpha 1 and beta 1 subunits (sGC) (Homo sapiens, UniProt Q02108+Q02153)
Sequence (Q02108 whole entry): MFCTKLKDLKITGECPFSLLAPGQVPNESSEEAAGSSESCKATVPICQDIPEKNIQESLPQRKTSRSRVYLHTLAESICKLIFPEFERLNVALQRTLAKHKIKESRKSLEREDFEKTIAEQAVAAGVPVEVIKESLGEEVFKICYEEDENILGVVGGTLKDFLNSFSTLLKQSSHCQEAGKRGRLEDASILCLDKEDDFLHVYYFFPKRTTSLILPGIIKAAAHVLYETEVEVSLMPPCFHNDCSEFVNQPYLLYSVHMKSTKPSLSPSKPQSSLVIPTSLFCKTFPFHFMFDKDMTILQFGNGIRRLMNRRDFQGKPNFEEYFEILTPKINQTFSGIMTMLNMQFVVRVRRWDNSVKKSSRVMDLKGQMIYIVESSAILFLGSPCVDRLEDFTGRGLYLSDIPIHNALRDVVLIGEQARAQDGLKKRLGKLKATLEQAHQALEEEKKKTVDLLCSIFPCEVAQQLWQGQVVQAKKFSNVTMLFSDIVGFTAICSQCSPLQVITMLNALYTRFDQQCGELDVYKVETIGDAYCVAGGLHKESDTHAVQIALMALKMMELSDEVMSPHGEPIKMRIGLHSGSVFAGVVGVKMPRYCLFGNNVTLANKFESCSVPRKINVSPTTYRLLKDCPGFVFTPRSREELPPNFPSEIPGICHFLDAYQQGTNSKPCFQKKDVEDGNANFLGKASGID
Sequence (Q02153 whole entry): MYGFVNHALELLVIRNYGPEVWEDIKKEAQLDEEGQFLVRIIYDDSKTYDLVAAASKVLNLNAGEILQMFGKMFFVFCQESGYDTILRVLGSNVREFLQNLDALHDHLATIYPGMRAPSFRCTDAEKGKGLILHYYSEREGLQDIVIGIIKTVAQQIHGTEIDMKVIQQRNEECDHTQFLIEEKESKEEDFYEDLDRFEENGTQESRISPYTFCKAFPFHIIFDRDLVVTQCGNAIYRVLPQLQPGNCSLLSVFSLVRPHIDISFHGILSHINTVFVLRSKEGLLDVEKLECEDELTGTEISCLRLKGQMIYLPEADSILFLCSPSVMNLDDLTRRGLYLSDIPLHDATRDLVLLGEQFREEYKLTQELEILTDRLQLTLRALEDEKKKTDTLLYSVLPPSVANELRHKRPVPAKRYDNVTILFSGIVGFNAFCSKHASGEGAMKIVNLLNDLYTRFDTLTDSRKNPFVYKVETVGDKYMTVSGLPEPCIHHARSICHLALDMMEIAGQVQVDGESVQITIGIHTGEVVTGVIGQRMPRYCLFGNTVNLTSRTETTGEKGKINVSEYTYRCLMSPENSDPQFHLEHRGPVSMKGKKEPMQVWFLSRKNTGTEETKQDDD
assay.comment: sGC cellular activator assay (cGMP, HTRF)
condition: CHO cells stably expressing human sGC alpha 1/beta 1, preincubated with 40 microM ODQ; cGMP readout; assay run with and without 50% human serum, Table 2 does not say which
measured.endpoint: EC50 (nM)

A selection of reference data follows.
* COc1c(C(=O)O)cnn1-c1cccc(-c2cc(C)ccc2OCc2ccc3c(c2C)CCN(C2CCOCC2)C3)n1 | 47
* COc1c(C(=O)O)cnn1-c1cccc(-c2cccc(C)c2OCc2cc3c(cc2C)CN(C2CCOCC2)C3)n1 | 160
* CC[C@H](C)Oc1c(C(=O)O)cnn1-c1cccc(-c2cccc(C)c2OCc2ccc3c(c2C)CCN(C2CCOC2)C3)n1 (stereo partly shown) | 89

(a) CCc1cc(COc2c(C)cccc2-c2cccc(-n3ncc(C(=O)O)c3OC)n2)cc2c1CN(C1COC1)CC2
(b) CCOc1c(C(=O)O)cnn1-c1cccc(-c2cccc(C)c2OCc2ccc3c(c2)CCN(C2CCOCC2C)C3)n1 (stereo not shown)
(c) CCOc1c(C(=O)O)cnn1-c1cccc(-c2cccc(C)c2OCc2cc(C)c3c(c2)CCN(C(C)COC)C3)n1 (stereo not shown)
(d) COc1c(C(=O)O)cnn1-c1cccc(-c2cccc(C)c2OCc2cc3c(c(C(F)(F)F)c2)CN(C2CCOCC2)CC3)n1
# input Your job: order these 4 records by EC50, ascending. Show the ranking through the labels, in the order asked for.
# output a, c, d, b
(a: 4.6 nM, c: 19 nM, d: 30 nM, b: 71 nM)

---

target.desc: human soluble guanylate cyclase alpha 1 and beta 1 subunits (sGC) (Homo sapiens, UniProt Q02108+Q02153)
Construct: expressed in transfected cells; host or cells: Chinese hamster ovary (CHO) cells, stably transfected
assay.comment: sGC cellular activator assay (cGMP, HTRF)
Assay type: cell-based
condition: CHO cells stably expressing human sGC alpha 1/beta 1, preincubated with 40 microM ODQ; cGMP readout; assay run with and without 50% human serum, Table 2 does not say which
measured.endpoint: EC50 (nM)

A selection of reference data follows.
- CCOc1c(C(=O)O)cnn1-c1cccc(-c2cccc(C)c2OCc2ccc3c(c2F)CCN(C2CCOCC2)C3)n1: 53
- COc1c(C(=O)O)cnn1-c1cccc(-c2cccc(C)c2OCc2ccc3c(c2)CCN(C2CCOCC2C)C3)n1 (centres unmarked): 41
- COc1c(C(=O)O)cnn1-c1cccc(-c2cccc(Cl)c2OCc2ccc3c(c2)CCN(C2COC2)C3)n1: 32
- COc1c(C(=O)O)cnn1-c1cccc(-c2cccc(C)c2OCc2cc3c(cc2C)CN(C2CCOCC2)CC3)n1: 40
- COc1c(C(=O)O)cnn1-c1cccc(-c2cccc(C)c2OCc2ccc3c(c2)CCN(C2CC(C)(C)OC(C)(C)C2)C3)n1: 250

(P) CCOc1c(C(=O)O)cnn1-c1cccc(-c2cccc(C)c2OCc2ccc3c(c2)CCN(C2CCOCC2F)C3)n1 (centres unmarked)
(Q) COc1c(C(=O)O)cnn1-c1cccc(-c2cccc(C)c2OCc2ccc3c(c2C)CCN(S(C)(=O)=O)C3)n1
(R) COc1c(C(=O)O)cnn1-c1cccc(-c2cccc(C)c2OCc2ccc3c(c2)CCN(CC2CCC2)C3)n1
(S) COc1c(C(=O)O)cnn1-c1cccc(-c2cccc(C)c2OCc2ccc3c(c2)CN(CC2COCCO2)C3)n1 (centres unmarked)
# input Your job: order these 4 records by EC50, ascending. Show the ranking through the labels, in the order asked for.
# output S, R, P, Q

(I) COc1c(C(=O)O)cnn1-c1cccc(-c2cccc(C)c2OCc2cc(C)c3c(c2)CN(C2COC2)C3)n1
(II) COc1c(C(=O)O)cnn1-c1cccc(-c2cccc(C)c2OCc2ccc3c(c2)CCN([C@H]2CC[C@H](OC)CC2)C3)n1
# input Of the two listed items, which has the higher EC50? First: I Second: II Mark your answer with the label of the selected entry.
# output II
(II: 69 nM, I: 15 nM)

(I) Cc1cc(COc2c(C)cccc2-c2cccc(-n3ncc(C(=O)O)c3OC(C)C)n2)cc2c1CN(C1CCOCC1)CC2
(II) CC[C@H](C)Oc1c(C(=O)O)cnn1-c1cccc(-c2cccc(C)c2OCc2ccc3c(c2C)CCN(C2CCCOC2)C3)n1 (some centres unmarked)
# input Which of these two has the smaller recorded EC50: I or II ? Mark your answer with the label of the selected entry.
# output I
(I: 14 nM, II: 54 nM)
